Value source: patent US20260116991A1

- Study system: monkey GPC3-His protein (monkey)
- Test description: ELISA, monkey GPC3-His coated; antibody 0.02 nM
Endpoint: OD450 nm

{"columns": ["Binder", "Endpoint", "Test value"],
 "data": [
  ["hAb003LH1L1b (antibody, human IgG1, V domains shown) VH: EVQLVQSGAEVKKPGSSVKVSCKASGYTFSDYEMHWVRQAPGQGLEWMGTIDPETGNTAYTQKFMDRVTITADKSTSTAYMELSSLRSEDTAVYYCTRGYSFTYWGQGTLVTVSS VL: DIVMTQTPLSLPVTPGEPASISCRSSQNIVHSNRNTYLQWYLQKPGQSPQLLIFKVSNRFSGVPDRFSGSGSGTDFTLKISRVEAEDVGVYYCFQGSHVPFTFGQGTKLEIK", "OD450 nm", 1.22],
  ["hAb006LH2L1 (antibody, human IgG1, V domains shown) VH: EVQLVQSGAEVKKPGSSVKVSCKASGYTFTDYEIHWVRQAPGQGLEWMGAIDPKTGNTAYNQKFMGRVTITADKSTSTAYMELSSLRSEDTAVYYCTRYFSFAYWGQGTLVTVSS VL: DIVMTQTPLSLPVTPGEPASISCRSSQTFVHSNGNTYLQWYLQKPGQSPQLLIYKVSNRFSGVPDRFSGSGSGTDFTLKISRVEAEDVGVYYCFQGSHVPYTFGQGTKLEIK", "OD450 nm", 1.06],
  ["hAb007LH1L1a (antibody, human IgG1, V domains shown) VH: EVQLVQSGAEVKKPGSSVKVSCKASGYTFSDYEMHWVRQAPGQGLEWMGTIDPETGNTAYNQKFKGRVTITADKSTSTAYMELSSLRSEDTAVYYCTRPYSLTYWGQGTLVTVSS VL: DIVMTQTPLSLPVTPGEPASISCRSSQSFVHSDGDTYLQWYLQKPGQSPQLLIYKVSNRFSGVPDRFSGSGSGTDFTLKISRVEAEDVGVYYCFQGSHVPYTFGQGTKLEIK", "OD450 nm", 0.197],
  ["hAb003LH3L1 (antibody, human IgG1, V domains shown) VH: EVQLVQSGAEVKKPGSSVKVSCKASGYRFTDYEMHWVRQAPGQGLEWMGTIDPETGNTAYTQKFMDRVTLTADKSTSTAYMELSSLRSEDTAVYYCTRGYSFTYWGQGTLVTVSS VL: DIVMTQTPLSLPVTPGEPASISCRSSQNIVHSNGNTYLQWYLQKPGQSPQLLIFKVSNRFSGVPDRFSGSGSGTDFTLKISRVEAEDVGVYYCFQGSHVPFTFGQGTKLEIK", "OD450 nm", 0.963],
  ["hAb005LH2L1a (antibody, human IgG1, V domains shown) VH: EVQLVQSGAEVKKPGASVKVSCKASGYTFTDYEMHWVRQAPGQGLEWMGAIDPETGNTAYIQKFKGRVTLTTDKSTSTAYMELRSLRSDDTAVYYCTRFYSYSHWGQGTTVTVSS VL: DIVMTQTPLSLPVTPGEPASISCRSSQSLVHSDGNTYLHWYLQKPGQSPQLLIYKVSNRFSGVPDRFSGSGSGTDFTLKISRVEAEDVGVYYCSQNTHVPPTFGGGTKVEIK", "OD450 nm", 0.041]
]}
